Taken from PubChem BioAssay (NCI).

system: KM12 colon; assay: NCI tumour cell line growth inhibition, 48 h
Label Satisfied for high-side TGI (at or above 30 µM) and Not satisfied for low-side TGI (below it).

>>> category("CCCCCCCCCCCCCC(=O)NO")
"Satisfied"
>>> category("O=C(Nc1cccc(-n2ccc3c(NC(=O)c4ccccc4)nccc32)c1)c1ccc(Cl)c(Cl)c1")
"Not satisfied"
>>> category("CCOC(=O)C1=C(C)C2C3C(=O)OC(=O)C3C1(C)C1C(=O)OC(=O)C21 (stereo unspecified)")
"Satisfied"
>>> category("O=C(C(=O)c1cccnc1)c1cccnc1")
"Satisfied"
>>> category("N#Cc1c2c(c(Nc3cccc(C(F)(F)F)c3)n3c1nc1ccccc13)CCCC2")
"Satisfied"
>>> category("COC(=O)/C(=N\\Nc1nc(=S)[nH]n1N)C(C#N)c1ccc(Cl)cc1 (stereo unspecified)")
"Satisfied"
>>> category("Cl.[O-]c1cccc2cccnc12.[O-]c1cccc2cccnc12.[O-]c1cccc2cccnc12.[O-]c1cccc2cccnc12.[Ti+4]")
"Not satisfied"
>>> category("O=C(CC1(O)C(=O)Nc2c(Cl)cc(Cl)cc21)c1ccc([N+](=O)[O-])cc1 (stereo unspecified)")
"Satisfied"
>>> category("COc1ccccc1/C=C1\\CCC(CN2CCOCC2)C1=O (stereo unspecified)")
"Not satisfied"
>>> category("Cc1ccc2nc(-c3nccn3C)cc(C(=O)NC(C)CN(C)C)c2c1 (stereo unspecified)")
"Satisfied"
>>> category("O=c1[nH][nH]c(=O)c2c(O)c(-c3ccccc3)ncc12")
"Satisfied"
>>> category("CSc1nc(SC)c2c(C)c(Br)[nH]c2n1")
"Satisfied"
>>> category("O=C1c2c(c3c4ccccc4n(CCCCCCN4CCOCC4)c3c3[nH]c4ccccc4c23)C(=O)N1O")
"Satisfied"
>>> category("O=[N+]([O-])c1cc(C(F)(F)F)cc2n[se]nc12")
"Not satisfied"
>>> category("CCCc1nn(C)c(CCC(=O)N(Cc2ccccc2)Cc2ccccc2)c1CC")
"Satisfied"
>>> category("Cn1cc(-c2csc(-c3cn(CCCN4CCCCC4)c4ccc(Br)cc34)n2)c2cccnc21")
"Not satisfied"
>>> category("O=C(NCCCN1CCN(CCCNC(=O)c2cc(-c3ccccc3)nc3ccccc23)CC1)c1cc(-c2ccccc2)nc2ccccc12")
"Satisfied"
>>> category("CCCn1cc(/C=N\\N=C2\\C(=O)Nc3ccc(C)cc32)c2ccccc21")
"Not satisfied"
>>> category("CCN(CC)CCNc1ccc(N=Nc2cnc3ccccc3c2)c2ccccc12")
"Not satisfied"
